The values you see were collected from patent US8012504B2.

RUN_DESCRIPTION: clinical
Format: in vivo, human
MEASUREMENT_PARAMETERS: human, in vivo, 1200 mg, Guaifenesin AUCinf
PROPERTY_NAME: AUC(0-inf) (ng·h/mL)
Only the number, expressed in ng·h/mL, is required.

What value of AUC(0-inf) has been reported for the following molecule? COc1ccccc1OCC(O)CO (stereo not shown)
7280

---

RUN_DESCRIPTION: Example 16: interaction potential, Mucinex and Sudafed 12 Hour alone or together, 3-way crossover
Type: in vivo, human
MEASUREMENT_PARAMETERS: human, in vivo, po, 120 mg, Pseudoephedrine AUCinf, mean; Treatment C: 120 mg pseudoephedrine HCl along with 1200 mg guaifenesin (Sudafed 12 Hour + Mucinex), overnight fast
Description: In another study drug interaction potential for combination drugs was examined.
Where a name gives a salt, the structure may show the parent alone.
PROPERTY_NAME: AUC(0-inf) (ng·h/mL)
Only the number, expressed in ng·h/mL, is required.

What value of AUC(0-inf) has been reported for the following molecule? CN[C@@H](C)[C@@H](O)c1ccccc1 [Pseudoephedrine, Pseudoephedrine hydrochloride]
4400
